- assay text: RP, Waters ACQUITY UPLC HSS T3, 150 × 2.1 mm, 1.8 µm; A: water + 0.1% formic acid; B: acetonitrile + 0.1% formic acid; gradient (min/%B) 0/5 1/5 16/95 18/95
- test context: stereoisomer not certain
value kind: LC retention time (min)

What does the record list as LC retention time for COc1cc2ccc(=O)oc2cc1O ?
4.5

And the next one, CC(C)CC(N)C(=O)NC(CC(C)C)C(=O)O (configuration not stated) ?
3.6

And the next one, NCc1c[nH]c2ccccc12 ?
1.8

And the next one, O=C(O)CCCCCCCC(=O)O ?
5.35

And the next one, O=C(O)CNC(=O)c1ccccc1 ?
3.39

And the next one, CCC(C)C(NC(=O)C(N)Cc1ccccc1)C(=O)O (configuration not stated) ?
3.8

And the next one, O=C(O)Cc1ccccc1 ?
3.6

----------
- assay text: RP, Waters ACQUITY UPLC HSS T3, 100 × 1 mm, 1.8 µm; A: water + 0.1% formic acid, pH 3; B: acetonitrile + 0.1% formic acid, pH 3; gradient (min/%B) 0/5 1/5 16/95 18/95 20/5
- test context: stereoisomer not certain
value kind: LC retention time (min)

Reference set, count: 3
What does the record list as LC retention time for CCC(C)C(N)C(=O)NC(C(=O)O)C(C)CC (stereo not drawn) [H-Ile-Ile-OH] ?
3.1

And the next one, O=c1cc[nH]c(=O)[nH]1 [Uracil] ?
0.638

And the next one, COc1cc(C=CCO)cc(OC)c1OC1OC(CO)C(O)C(O)C1O (centres undefined) [Syringin] ?
3.2

I. CC(C)CC(NC(=O)C(N)Cc1ccccc1)C(=O)O (stereo not drawn) [H-Phe-Leu-OH]
II. Nc1nc2c(ncn2C2OC(CO)C(O)C2O)c(=O)[nH]1 (centres undefined) [Guanosine]
Endpoint returns the identifier whose LC retention time is numerically larger, either I or II . Choose, then provide that item's label.
I

----------
- assay text: RP, Waters ACQUITY UPLC HSS T3, 100 × 1 mm, 1.8 µm; A: water + 0.1% formic acid, pH 3; B: acetonitrile + 0.1% formic acid, pH 3; gradient (min/%B) 0/5 1/5 16/95 18/95 20/5
- test context: stereoisomer not certain
value kind: LC retention time (min)

What does the record list as LC retention time for CC(C)CC(N)C(=O)NC(Cc1ccccc1)C(=O)O (centres undefined) ?
4.2

And the next one, O=c1ccc2cc(OC3OC(CO)C(O)C(O)C3O)c(O)cc2o1 (centres undefined) ?
2.9

A. CC(C)CC(N)C(=O)NC(CC(C)C)C(=O)O (centres undefined)
B. O=C(O)CCCCCCCC(=O)O
Returns: the label, A or B , whose recorded LC retention time is the lower number. Choose, then provide that item's label.
A
(A: 3.6 min, B: 5.35 min)
